Each entry below carries its recorded Activity.
# assay comment: Antioxidant activity assessed as DPPH free radical scavenging activity at 20 uM incubated in dark for 20 mins relative to control
# Format: functional
Just the number in %, nothing appended.

For `COc1cc(/C=C/C(=O)CC(=O)/C=C/c2ccc(O)c(OC)c2)ccc1O` , what is its reported Activity?
42.2

For COc1cc(/C=C/C(=O)C2=C(/C=C/c3ccc(O)c(OC)c3)NC(=O)NC2c2ccc(N(C)C)cc2)ccc1O (stereo not drawn) , what is its reported Activity?
48

For COc1cc(/C=C/C(=O)C2=C(/C=C/c3ccc(O)c(OC)c3)NC(=S)NC2c2ccccc2Cl)ccc1O (stereo not drawn) , what is its reported Activity?
56.6

For COc1cc(/C=C/C(=O)C2=C(/C=C/c3ccc(O)c(OC)c3)NC(=S)NC2c2ccc(N(C)C)cc2)ccc1O (stereo not drawn) , what is its reported Activity?
83

For COc1cc(/C=C/C(=O)C2=C(/C=C/c3ccc(O)c(OC)c3)NC(=O)NC2c2ccc(O)cc2)ccc1O (stereo not drawn) , what is its reported Activity?
84.6

For COc1cc(/C=C/C(=O)C2=C(/C=C/c3ccc(O)c(OC)c3)NC(=O)NC2c2ccc(C)cc2)ccc1O (stereo not drawn) , what is its reported Activity?
38.2

For COc1cc(/C=C/C(=O)C2=C(/C=C/c3ccc(O)c(OC)c3)NC(=O)NC2c2ccccc2)ccc1O (stereo not drawn) , what is its reported Activity?
38.2

For COc1cc(/C=C/C(=O)C2=C(/C=C/c3ccc(O)c(OC)c3)NC(=O)NC2c2ccccc2O)ccc1O (stereo not drawn) , what is its reported Activity?
81

---

# assay comment: Antioxidant activity assessed as nitric oxide radical scavenging activity at 10 uM incubated in dark for 20 mins relative to control
# Type: functional
Each entry below carries its recorded Activity.
Remember to follow the number with its unit.

These solved cases illustrate the format of a correct answer.
{"molecule": "COc1cc(/C=C/C(=O)C2=C(/C=C/c3ccc(O)c(OC)c3)NC(=O)NC2c2c(Cl)cccc2Cl)ccc1O (stereo not drawn)", "Activity": "20%"}
{"molecule": "COc1cc(/C=C/C(=O)C2=C(/C=C/c3ccc(O)c(OC)c3)NC(=O)NC2c2ccccc2)ccc1O (stereo not drawn)", "Activity": "20%"}
{"molecule": "COc1cc(/C=C/C(=O)C2=C(/C=C/c3ccc(O)c(OC)c3)NC(=O)NC2c2ccc(C)cc2)ccc1O (stereo not drawn)", "Activity": "23.9%"}
{"molecule": "COc1cc(/C=C/C(=O)C2=C(/C=C/c3ccc(O)c(OC)c3)NC(=S)NC2c2ccccc2O)ccc1O (stereo not drawn)", "Activity": "70.8%"}
{"molecule": "COc1cc(/C=C/C(=O)C2=C(/C=C/c3ccc(O)c(OC)c3)NC(=S)NC2c2ccc(C)cc2)ccc1O (stereo not drawn)", "Activity": "19.9%"}

For COc1cc(/C=C/C(=O)C2=C(/C=C/c3ccc(O)c(OC)c3)NC(=O)NC2c2ccc(O)cc2)ccc1O (stereo not drawn) , what is its reported Activity?
72%

For COc1cc(/C=C/C(=O)CC(=O)/C=C/c2ccc(O)c(OC)c2)ccc1O [CURCUMIN] , what is its reported Activity?
22.2%

For COc1cc(/C=C/C(=O)C2=C(/C=C/c3ccc(O)c(OC)c3)NC(=O)NC2c2ccccc2O)ccc1O (stereo not drawn) , what is its reported Activity?
71%

---

Each entry below carries its recorded IC50.
# assay comment: Cytotoxicity against human QG56 cells assessed as decrease in cell viability after 48 hrs by MTT assay
# Format: functional, cell-based
# experimental setup: QG-56, 48 h
Counter-ions that a name gives are not always drawn.
Just the number in µM, nothing appended.

These solved cases illustrate the format of a correct answer.
{"molecule": "COc1cc(/C=C/C(=O)CC(=O)/C=C/c2ccc(O)c(OC)c2)ccc1O", "scale unit": "µM", "IC50": 100}
{"molecule": "COc1cc(/C=C/C(=O)C2=C(/C=C/c3ccc(O)c(OC)c3)NC(=S)NC2c2ccc(C)cc2)ccc1O (stereo unspecified)", "scale unit": "µM", "IC50": 12.5}
{"molecule": "COc1cc(/C=C/C(=O)C2=C(/C=C/c3ccc(O)c(OC)c3)NC(=S)NC2c2ccc(N(C)C)cc2)ccc1O (stereo unspecified)", "scale unit": "µM", "IC50": 25}

For COc1cccc2c1C(=O)c1c(O)c3c(c(O)c1C2=O)C[C@@](O)(C(=O)CO)C[C@@H]3O[C@H]1C[C@H](N)[C@H](O)[C@H](C)O1 [DOXORUBICIN HYDROCHLORIDE] , what is its reported IC50?
2.5

For COc1cc(/C=C/C(=O)C2=C(/C=C/c3ccc(O)c(OC)c3)NC(=O)NC2c2ccc(N(C)C)cc2)ccc1O (stereo unspecified) , what is its reported IC50?
12.5

For COc1cc(/C=C/C(=O)C2=C(/C=C/c3ccc(O)c(OC)c3)NC(=O)NC2c2cccc([N+](=O)[O-])c2)ccc1O (stereo unspecified) , what is its reported IC50?
25

For COc1cc(/C=C/C(=O)C2=C(/C=C/c3ccc(O)c(OC)c3)NC(=O)NC2c2c(Cl)cccc2Cl)ccc1O (stereo unspecified) , what is its reported IC50?
100

For COc1cc(/C=C/C(=O)C2=C(/C=C/c3ccc(O)c(OC)c3)NC(=O)NC2c2ccccc2)ccc1O (stereo unspecified) , what is its reported IC50?
50

For COc1cc(/C=C/C(=O)C2=C(/C=C/c3ccc(O)c(OC)c3)NC(=O)NC2c2ccc(O)cc2)ccc1O (stereo unspecified) , what is its reported IC50?
50

---

# assay comment: Antioxidant activity assessed as DPPH free radical scavenging activity at 50 uM incubated in dark for 20 mins relative to control
# Type: functional
Each entry below carries its recorded Activity.
Just the number in %, nothing appended.

These solved cases illustrate the format of a correct answer.
{"molecule": "COc1cc(/C=C/C(=O)C2=C(/C=C/c3ccc(O)c(OC)c3)NC(=O)NC2c2ccccc2O)ccc1O (configuration not stated)", "Activity (%)": 88.9}
{"molecule": "COc1cc(/C=C/C(=O)C2=C(/C=C/c3ccc(O)c(OC)c3)NC(=O)NC2c2c(Cl)cccc2Cl)ccc1O (configuration not stated)", "Activity (%)": 43.2}
{"molecule": "COc1cc(/C=C/C(=O)C2=C(/C=C/c3ccc(O)c(OC)c3)NC(=O)NC2c2cccc([N+](=O)[O-])c2)ccc1O (configuration not stated)", "Activity (%)": 71}
{"molecule": "COc1cc(/C=C/C(=O)C2=C(/C=C/c3ccc(O)c(OC)c3)NC(=O)NC2c2ccc(O)cc2)ccc1O (configuration not stated)", "Activity (%)": 90.3}
{"molecule": "COc1cc(/C=C/C(=O)C2=C(/C=C/c3ccc(O)c(OC)c3)NC(=S)NC2c2ccccc2O)ccc1O (configuration not stated)", "Activity (%)": 86.3}
{"molecule": "COc1cc(/C=C/C(=O)C2=C(/C=C/c3ccc(O)c(OC)c3)NC(=S)NC2c2c(Cl)cccc2Cl)ccc1O (configuration not stated)", "Activity (%)": 50.2}

With those in mind, consider the next molecule.
For COc1cc(/C=C/C(=O)C2=C(/C=C/c3ccc(O)c(OC)c3)NC(=S)NC2c2ccc(C)cc2)ccc1O (configuration not stated) , what is its reported Activity?
62

---

Each entry below carries its recorded Activity.
# assay comment: Antioxidant activity assessed as nitric oxide radical scavenging activity at 10 uM incubated in dark for 20 mins relative to control
# Assay type: functional

These solved cases illustrate the format of a correct answer.
{"compound": "COc1cc(/C=C/C(=O)C2=C(/C=C/c3ccc(O)c(OC)c3)NC(=O)NC2c2ccccc2Cl)ccc1O (stereo not drawn)", "Activity": "23%"}
{"compound": "COc1cc(/C=C/C(=O)C2=C(/C=C/c3ccc(O)c(OC)c3)NC(=S)NC2c2c(Cl)cccc2Cl)ccc1O (stereo not drawn)", "Activity": "20.2%"}

With those in mind, consider the next compound.
For COc1cc(/C=C/C(=O)C2=C(/C=C/c3ccc(O)c(OC)c3)NC(=S)NC2c2ccc(N(C)C)cc2)ccc1O (stereo not drawn) , what is its reported Activity?
59%

---

Each entry below carries its recorded pIC50.
# assay comment: Cytotoxicity against human QG56 cells assessed as decrease in cell viability after 48 hrs by MTT assay
# Assay type: functional, cell-based
# experimental setup: QG-56, 48 h
Please treat pIC50 as minus the base-10 logarithm of the molar concentration.

These solved cases illustrate the format of a correct answer.
{"molecule": "COc1cc(/C=C/C(=O)C2=C(/C=C/c3ccc(O)c(OC)c3)NC(=O)NC2c2ccccc2O)ccc1O (configuration not stated)", "pIC50": 4.00}
{"molecule": "COc1cc(/C=C/C(=O)C2=C(/C=C/c3ccc(O)c(OC)c3)NC(=S)NC2c2c(Cl)cccc2Cl)ccc1O (configuration not stated)", "pIC50": 4.00}
{"molecule": "COc1cc(/C=C/C(=O)C2=C(/C=C/c3ccc(O)c(OC)c3)NC(=O)NC2c2ccc(C)cc2)ccc1O (configuration not stated)", "pIC50": 4.00}
{"molecule": "COc1cc(/C=C/C(=O)C2=C(/C=C/c3ccc(O)c(OC)c3)NC(=O)NC2c2ccccc2Cl)ccc1O (configuration not stated)", "pIC50": 4.00}
{"molecule": "COc1cc(/C=C/C(=O)C2=C(/C=C/c3ccc(O)c(OC)c3)NC(=S)NC2c2ccccc2O)ccc1O (configuration not stated)", "pIC50": 4.30}

For COc1cc(/C=C/C(=O)C2=C(/C=C/c3ccc(O)c(OC)c3)NC(=S)NC2c2ccccc2Cl)ccc1O (configuration not stated) , what is its reported pIC50?
4.30

For COc1cc(/C=C/C(=O)C2=C(/C=C/c3ccc(O)c(OC)c3)NC(=S)NC2c2ccccc2)ccc1O (configuration not stated) , what is its reported pIC50?
4.00
